Sourced from patent US12435087B2

Exercise: state measured pIC50 for each of the compounds provided.
SYSTEM_UNDER_TEST: DCN1 (DCUND1) protein PONY domain (Homo sapiens (Human), UniProt Q96GG9)
TEST_METHOD_NOTES: TR-FRET assay (binding to DCN-1, displacement of FAM-labeled probe)
CONDITION_NOTES: 24 hr after treatment with compound; read-out: TR FRET IC50 24 hr
pIC50: −log10 of the molar value.

# COMPOUND, SYSTEM_UNDER_TEST, PROPERTY_LABEL, TEST_VALUE
records = [
    ("C=C(C(=O)NCc1cccc([C@@H]2c3cnn(-c4ccccc4)c3N(CC)C(=O)[C@H]2NC(=O)c2ccn(C3CC3)n2)c1)C(C)N(C)C1COC1 (stereo partly shown) [Compound I-327]", "DCN1 (DCUND1) protein PONY domain (Homo sapiens (Human), UniProt Q96GG9)", "pIC50", "≥ 6.70"),
    ("CCN1C(=O)[C@@H](NC(=O)c2nccc(C(F)(F)F)n2)[C@H](c2cccc(C(=O)N(C)CC#N)c2)c2cnn(-c3ccccc3)c21 (racemic) [Compound I-370]", "DCN1 (DCUND1) protein PONY domain (Homo sapiens (Human), UniProt Q96GG9)", "pIC50", "5.52 to 6.00"),
    ("C=C(C(=O)NCc1cccc([C@@H]2c3cnn(-c4ccccc4)c3N(CC)C(=O)[C@H]2NC(=O)c2csc(C(F)(F)F)n2)c1)C(C(C)C)N(C)C1COC1 (stereo partly shown) [Compound I-352]", "DCN1 (DCUND1) protein PONY domain (Homo sapiens (Human), UniProt Q96GG9)", "pIC50", "≥ 6.70"),
]

Dear reader, for each entry below, please note its pIC50.
1. CCN1C(=O)[C@@H](NC(=O)c2nccc(C(F)(F)F)n2)[C@H](c2cccc(NC(=O)/C=C/C(=O)OC(C)(C)C)c2)c2c(C)nn(-c3ccccc3)c21 (racemic) [Compound I-359]
2. CCN1C(=O)[C@H](NC(=O)c2cccc(C(F)(F)F)c2)[C@@H](c2cccc(NC(=O)/C=C/CN(C)C)c2)c2c(CN(C)C)nn(-c3ccccc3)c21 (racemic) [Compound I-212]
3. CCN1C(=O)[C@@H](NC(=O)c2cccc(C(F)(F)F)c2)[C@H](c2ccccc2CNC#N)c2c(C)nn(-c3ccccc3)c21 (racemic) [Compound I-149]
4. C=C(CN1CC(F)(F)C1)C(=O)NCc1cccc([C@@H]2c3cnn(-c4ccccc4)c3N(CC)C(=O)[C@H]2NC(=O)c2nccc(C(F)(F)F)n2)c1 [Compound I-261]
5. C/C=C(\CN1CCOCC1)C(=O)NCc1cccc([C@H]2c3cnn(-c4ccccc4)c3N(CC)C(=O)[C@@H]2NC(=O)c2cccc(C(F)(F)F)c2)c1 [Compound I-115]
6. CCN1C(=O)[C@H](NC(=O)c2cccc(C(F)(F)F)c2)[C@@H](c2ccccc2NC(=O)[C@H](C)Br)c2cnn(-c3ccccc3)c21 (mixture of isomers) [Compound I-72]
7. C=C(CN1CCN(C2COC2)CC1)C(=O)NCc1cccc([C@@H]2c3cnn(-c4ccccc4)c3N(CC)C(=O)[C@H]2NC(=O)c2cccc(C(F)(F)F)c2)n1 [Compound I-216]

A.
1. ≥ 6.70
2. ≥ 6.70
3. 6.00 to 6.70
4. ≥ 6.70
5. 5.52 to 6.00
6. 6.00 to 6.70
7. ≥ 6.70

###

SYSTEM_UNDER_TEST: DCN1 protein (Homo sapiens (Human), UniProt Q96GG9)
Sequence (Q96GG9 whole entry): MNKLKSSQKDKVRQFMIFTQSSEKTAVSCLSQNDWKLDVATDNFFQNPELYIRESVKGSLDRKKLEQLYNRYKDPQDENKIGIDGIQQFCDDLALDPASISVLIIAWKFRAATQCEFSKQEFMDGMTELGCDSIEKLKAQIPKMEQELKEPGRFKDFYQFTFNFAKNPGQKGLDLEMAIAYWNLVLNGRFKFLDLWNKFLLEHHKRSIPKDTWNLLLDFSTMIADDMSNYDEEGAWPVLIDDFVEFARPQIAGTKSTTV
TEST_METHOD_NOTES: Intact protein MS analysis with the RapidFire-TOF system (covalent adduct formation)
Format: binding
CONDITION_NOTES: 400 nM DCN1, incubated at room temperature for 3 hours
Exercise: state measured Emax for each of the compounds provided.

Known results for compounds:
# COMPOUND, Emax
data = [
    ("CCN1C(=O)[C@H](NC(=O)c2cccc(C(F)(F)F)c2)[C@@H](c2ccccc2NC(=O)C(F)Cl)c2cnn(-c3ccccc3)c21 (mixture of isomers)", "0 to 30%"),
    ("C=C(CN(C)C)C(=O)Nc1cccc([C@H]2c3c(C)nn(-c4ccccc4)c3N(CC)C(=O)[C@@H]2NC(=O)c2cccc(C(F)(F)F)c2)c1 (racemic)", "80 to 100%"),
    ("CCN1C(=O)[C@@H](NC(=O)c2cccc(C(F)(F)F)c2)[C@@H](c2cccc(NS(=O)(=O)CCl)c2)c2c(C)nn(-c3ccccc3)c21 (racemic)", "0 to 30%"),
    ("C=C(CN1CC2(COC2)C1)C(=O)Nc1cccc([C@@H]2c3c(C)nn(-c4ccccc4)c3N(CC)C(=O)[C@H]2NC(=O)c2cccc(C(F)(F)F)c2)c1 (racemic)", "80 to 100%"),
]

Next compound, Emax to be filled in.
Q. # get_value(readout='Emax', item= C/C=C(\CN1CCN(C2COC2)CC1)C(=O)Nc1cccc([C@@H]2c3c(C)nn(-c4ccccc4)c3N(CC)C(=O)[C@H]2NC(=O)c2nccc(C(F)(F)F)n2)c1 (racemic) )
A. 80 to 100%

###

SYSTEM_UNDER_TEST: DCN1 (DCUND1) protein PONY domain (Homo sapiens (Human), UniProt Q96GG9)
TEST_METHOD_NOTES: TR-FRET assay (binding to DCN-1, displacement of FAM-labeled probe)
CONDITION_NOTES: 24 hr after treatment with compound; read-out: TR FRET IC50 24 hr
PROPERTY_LABEL: IC50

Known results for compounds:
# COMPOUND, TEST_VALUE
rows = [
    ("CCN1C(=O)[C@@H](NC(=O)c2nccc(C(F)(F)F)n2)[C@H](c2cccc(NC(=O)C3=CCC3)n2)c2cnn(-c3ccccc3)c21 (racemic) [Compound I-279]", "1000 to 3000 nM"),
    ("C=CC(=O)Nc1cccc([C@H]2c3c(C)nn(-c4ccccc4)c3N(CC)C(=O)[C@@H]2NC(=O)c2cccc(C(F)(F)F)c2)c1 (racemic) [Compound I-77]", "200 to 1000 nM"),
    ("C=C(CN1C2COCC1C2)C(=O)NCc1cccc([C@@H]2c3cnn(-c4ccccc4)c3N(CC)C(=O)[C@H]2NC(=O)c2cccc(C(F)(F)F)c2)c1 [Compound I-8]", "≤ 200 nM"),
    ("C=C(CN1CCC1)C(=O)NCc1cccc([C@@H]2c3c(C)nn(-c4ccccc4)c3N(CC)C(=O)[C@H]2NC(=O)c2cccc(C(F)(F)F)c2)c1 [Compound I-303]", "≤ 200 nM"),
    ("CCN1C(=O)[C@@H](NC(=O)c2nccc(C(F)(F)F)n2)[C@H](c2cccc(NC(=O)C3=CCN(C)C3)c2)c2c(C)nn(-c3ccccc3)c21 [Compound I-224]", "≤ 200 nM"),
]

Next compound, IC50 to be filled in.
Q. # returns recorded IC50 (system: DCN1 (DCUND1) protein PONY domain (Homo sapiens (Human), UniProt Q96GG9)) for CCN1C(=O)[C@@H](NC(=O)c2cccc(C(F)(F)F)c2)[C@H](c2ccccc2CN(C)C#N)c2cnn(-c3ccccc3)c21 (racemic) [Compound I-49]
A. 1000 to 3000 nM

###

SYSTEM_UNDER_TEST: DCN1 (DCUND1) protein PONY domain (Homo sapiens (Human))
TEST_METHOD_NOTES: TR-FRET assay (binding to DCN-1, displacement of FAM-labeled probe)
CONDITION_NOTES: TR FRET IC50 1 hr (nM), 1 hr after treatment with compound
Exercise: state measured IC50 for each of the compounds provided.

Known results for compounds:
# COMPOUND, TEST_VALUE
data = [
    ("CCN1C(=O)[C@H](NC(=O)c2cccc(C(F)(F)F)c2)[C@@H](c2cccc(NC(=O)C#CCN(C)C)c2)c2c(C)nn(-c3ccccc3)c21 (racemic)", "≤ 200 nM"),
    ("CCN1C(=O)[C@@H](NC(=O)c2cccc(C(F)(F)F)c2)[C@H](c2ccccc2CNC#N)c2c(C)nn(-c3ccccc3)c21 (racemic)", "1000 to 3000 nM"),
    ("CCN1C(=O)[C@H](NC(=O)c2cccc(C(F)(F)F)c2)[C@@H](c2cccc(NC(=O)/C=C/CN(C)C)c2)c2c(CN(C)C)nn(-c3ccccc3)c21 (racemic)", "200 to 1000 nM"),
    ("C=C(C(=O)NCc1cccc([C@@H]2c3cnn(-c4ccccc4)c3N(CC)C(=O)[C@H]2NC(=O)c2nccc(C(F)(F)F)n2)c1)[C@H](C)N(C)C1COC1 (single isomer, unassigned)", "200 to 1000 nM"),
]

Next compound, IC50 to be filled in.
Q. # get_value(readout='IC50', item= CCN1C(=O)[C@H](NC(=O)c2cccc(C(F)(F)F)c2)[C@@H](c2cccc(NC(C)=O)c2)c2c(C)nn(-c3ccccc3)c21 (racemic) )
A. 1000 to 3000 nM
